Tested on: MS2 coat protein
METHOD: apparent KD of MS2 coat protein; designed switch direction (-1 OFF switch, 1 ON switch): 1; higher = weaker reporter binding
ASSAY CONTEXT: input ligand: microRNA oligo, concentration not stated
ENDPOINT: apparent KD of MS2 coat protein (nM)
Answers are plain numbers, in nM.

Please give apparent KD of MS2 coat protein for each item listed below.
1. GUUACAUGAGGAUCACCCAUGUAUGUGUGGGAGUAAGUGUCUUAGGAUAUCUAUGAUUUAAAUUAAGAGAAGGAAGAUUGUUGU [JMF's solution 11] (Eterna round: R96, puzzle: Same State NG 3)
2. ACAUGAGAGUGAGGAUAUAUAGUACCUACAUGUGACAUGAGGAUCACCCAUGUGGUAAGUAUGACAUAGAAGGCACAGAUAUGU [Equivalance 100 - Jieux - Same State NG 2] (Eterna round: R96, puzzle: Same State NG 2)
3. GUCCAAAACACAGGAUAUCCCGGUCAAAAUCCGGGAGAAGGGUGGCCACAUGAGGAUCACCCAUGUGACGUGCGAGAGGCACGA [Diessorire] (Eterna round: R96, puzzle: Same State NG 1)
4. UGGCUCAGACGAGGAUAUAUGUGGUCACAUGAGGAUCACCCAUGUCUCGAGCUUCGGCUCGAGGCAUAGAAGGCGUCUGAGCCU [SSNG2/5-A3] (Eterna round: R96, puzzle: Same State NG 2)

Output:
84.2
71.4
318
7.4

----------
Test system: MS2 coat protein
METHOD: apparent KD of MS2 coat protein; higher = weaker reporter binding
ASSAY CONTEXT: Eterna round: R107; input ligand: theophylline 20 uM
Mark MET for reported apparent KD of MS2 coat protein of 40 nM or greater; mark NOT MET for anything smaller.

UCGUCCUCCGCAAGGAGGAGGAGUUGCGAUACCAGCACGGUAACGUGCCCUUGGCAGCGCACAUGAGGAUCACCCAUGUGGUGUU [#1 Exclusion - Theophylline A Attempt #13 (HarryS)]	MET
GCUAGUGGCAGAAGGAGCGGCAUACAUGCAAGUGACAUGAGGAUCACCCAUGUAAGGGAAUGCCAGGUAGGUCGCUGCCACUAGC [EAB NP+V+V2 #2 +-Same Structure]	MET
UUCGCGGCCGCGCUGCACAUGUGUGUGUUACGAGGACCGGUACGGCCGCCACUCGCGAUCGCACAUGAGGAUCACCCAUGUGGGA [Exclusion Tryp A GF17]	NOT MET
UGUAUGGACUGAAGGAGCGCCUCAAAAUAACUUGAGGAUCACCCAGGUAAGGCGAAAGCCGGGCAGGUAGGUCGCAGUCCAUACU [ArgBX 3]	MET
CGAUACAAAUAAAGCGUUCGUCCGCCAGAUACCAGAUUCAUUUCCAUCCCUUGGCAGCUGUCGACAUGAGGAUCACCCAUGUUUG [theeternabot_exclusion_MS2_Theo_A_41]	NOT MET

Task: Evaluate AGAGUCAGACAAAAGUCUGGCUCAGCCGAAGGAGCGUCCGAAAGGACAGGUAGGUCGCGGUUACAUGAGGAUCACCCAUGUUCCU [ArgAS 7 #OpenEnded] : apparent KD of MS2 coat protein at minimum 40 nM?
Output: MET

Task: Same thing, different sequence: UCGUAGGUAGGAAGGAGCGCAUACUUCACAUGAGGAUCACCCAUGUCGAGACGUGAGUCAGUGCAGGUAGGUCGCCUAGUUAUGA [Same State - Arginine B (Freestyle 24)]
Output: NOT MET

----------
Test system: MS2 coat protein
METHOD: apparent KD of MS2 coat protein; higher = weaker reporter binding
ASSAY CONTEXT: Eterna round: R107; input ligand: arginine 13.2 mM
Mark YES for reported apparent KD of MS2 coat protein of 0.04 µM or greater; mark NO for anything smaller.

The examples below pair each entry with its known result.
ACAUGAGGAUCACCCAUGUGAAGCAGGGUACGAGGACCGGUACGGCCGCCACUCGAACAUUAUAACGAGUGAAUGGCAACGAUGU [B15Jan]	NO
UUCUACGGCGAUCUGGGUUUACCAGAUCGACGAGGACCGGUACGGCCGCCACUCGUGUUUCUUUAACAUGAGGAUCACCCAUGUA [#11 Tryptophan A Same State]	YES
UGUAUGGACUGAAGGAGCGCCUCAAAAUAACUUGAGGAUCACCCAGGUAAGGCGAAAGCCGGGCAGGUAGGUCGCAGUCCAUACU [ArgBX 3]	NO

Consider now this further sequence.
Task: Evaluate AUUCAUAAUUGGGUAAAUGGAUAGAGUGAUACCAGUCAUAUACAUGACCCUUGGCAGCACAAGGACAUGAGGAUCACCCAUGUCA [Same State Theophylline A GF22] : apparent KD of MS2 coat protein at minimum 0.04 µM?
Output: NO

----------
Tested on: MS2 coat protein
METHOD: apparent KD of MS2 coat protein; higher = weaker reporter binding
ASSAY CONTEXT: Eterna round: R107; input ligand: arginine 13.2 mM
Task for the reader: assign each of the following sequences its reported apparent KD of MS2 coat protein.
Numbers only, in µM.

Recorded apparent KD of MS2 coat protein, per entry:
UACUUGCUGACGGCCGCCACUAGUACAUGAGGAUCACCCAUGUACGGUCGCCCGGUGUGAUCCACUAGGACCGGGUCAGCAAGAU [(Trp1)-(Ms2)-(T)'-(M)'-(Trp2)_Design24]	0.0384
CGCCGAGAGGGAAGGAGCGCGAUAACAUAACAUGAGGAUCACCCAUGUAAGAAAUUAAUCAUGCAGGUAGGUCGCCCAAGCGGCG [Same State Arginine B GF 3]	0.015
GAGGAAACUCACAUGAGGAUCACCCAUGUACGAGGACCGGUACGGCCGCCACUCGAAACCAUGGGCGGUAGUACAUGGAAACAUG [Design 2 MOD]	0.034
CAGAGCUACCGGGAUACCAGAAUUGGUAUUCCUAUAUUUCUUACAUGAGGAUCACCCAUGUUCCCUUGGCAGCUUGGUAGCUCUG [ETHB #9]	0.0451
UUAUAAGUACCGGUCCUCAGAUCCUCAUGACGAGGACCGGUACGGCCGCCACUCGAAACAUGAGGAUCACCCAUGUAAUAACACU [Brourdmod20]	0.0192

Please give apparent KD of MS2 coat protein for each item listed below.
1. AUAAGUAAUGUCUCGUGUAUUAUUACAGAUACCAGACUAUCCUAUGUCCCUUGGCAGCUGGAUUACAUGAGGAUCACCCAUGUGG [#11 Exclusion-TheophyllineA]
2. UAAUCCGGUCCUCGAUAAUCCUCAUGUAAACGAGGACCGGUACGGCCGCCACUCGAUAACAUGAGGAUCACCCAUGUAAUAAUAA [|T'-M'-Trp-Ms2|_Design14]

Output:
[0.0376, 0.0475]

----------
Tested on: MS2 coat protein
METHOD: apparent KD of MS2 coat protein; designed switch direction (-1 OFF switch, 1 ON switch): 1; higher = weaker reporter binding
ASSAY CONTEXT: input ligand: microRNA oligo, concentration not stated
ENDPOINT: apparent KD of MS2 coat protein (nM)
Answers are plain numbers, in nM.

Recorded apparent KD of MS2 coat protein, per entry:
CACAUCCAGGUAGGAUAUGAGGUGCCAUAGGGAAAAGCCUAUGGACAUGAGGAUCACCCAUGUCCUCAGAAGGGCCGGACGUGA [Ceerbearre] (Eterna round: R96, puzzle: Same State NG 2)	79.6
ACAUAGGUUUCAGGAUAUGGGUAAAUUCCCAACAUGAGGAUCACCCAUGUCCGUUGGGAUAACAUCCAGAAGGGAAGCCACAUA [MOD2 Eternabot Solution 1 (Score 87.5)] (Eterna round: R96, puzzle: Same State NG 2)	88.1
GCCGGCUGGUGAGGAUAUGGCGCCUUGUUGGUGCCAGAAGGCAUGUCUUUUGACAUGAGGAUCACCCAUGUGUUGUCGUUGGCG [salish99_SSNG1_r04_613] (Eterna round: R96, puzzle: Same State NG 1)	72.3

Task: Would you mind telling me what apparent KD of MS2 coat protein value was observed for GGUAUCGACACAGGAUAUGCUAUCCUUUGGGUAGCAGAAGGGUGAACAUGAGGAUCACCCAUGUAGGUGCCAGGGCGUGAGCCC [JL SSNG1 1.79] (Eterna round: R96, puzzle: Same State NG 1) ?
Output: 94.1

----------
System: MS2 coat protein
METHOD: apparent KD of MS2 coat protein; designed switch direction (-1 OFF switch, 1 ON switch): -1; higher = weaker reporter binding
ASSAY CONTEXT: input ligand: FMN 200 uM
ENDPOINT: apparent KD of MS2 coat protein (nM)
Answers are plain numbers, in nM.

Please give apparent KD of MS2 coat protein for each item listed below.
1. ACCAGACAUGAGGAUCACCCAUGUCAGGAUAUUAUUCUACCUGAAGUUCGGGAUUGUGUGAGAAGGGACUGGGA [Eternabot (L2) Solution 86] (Eterna round: R97, puzzle: Exclusion 1)
2. CCGAAGGCAGGAUAUACAGGACAGACCCAUCAGAGCAGACUACAUGAGGAUCACCCAUGUAGAAGGGCCUUCAA [Eternabot (Original) Solution 26] (Eterna round: R97, puzzle: Exclusion 2)
3. GCUAGAGCAGGAUAUCUAGAUCCACACAUGAGGAUCACCCAUGUAGUCGAAAGACUAAGAAGAGAAGGGCUCUAGC [Omei Ex5 E16] (Eterna round: R97, puzzle: Exclusion 5)
4. GCGGACAAGAUGGUGACAUCAGAGACAUGAGGAUCACCCAUGUAGGAUAUCGAUUCGAAACGAAUCGAGAAGGGCAUAGUCCGC [JL denovo 3] (Eterna round: R96, puzzle: Exclusion NG 3)
5. AAUCCUCUGCAGGAUAUCACUGGAUGAACCAGCUGAGAAGGGCGCACAUGAGGAUCACCCAUGUUGUAAGUAGC [Eternabot (L1) Solution 80] (Eterna round: R97, puzzle: Exclusion 6)

Output:
1: 17.4; 2: 154; 3: 322; 4: 460; 5: 132
